protocol: Binding affinity to human LC3 by surface plasmon resonance assay
measurementName: Kd (µM)

smi	measureUnit	assayValue
O=C(CCCC[C@H]1SC[C@H]2NC(=O)N[C@H]21)NCCCCCC(=O)NNCc1ccc(C(=O)Nc2nc(-c3ccccn3)cs2)cc1	µM	18
